# tgt: plasma BChE (Homo sapiens)
# Sequence (P06276 29-602): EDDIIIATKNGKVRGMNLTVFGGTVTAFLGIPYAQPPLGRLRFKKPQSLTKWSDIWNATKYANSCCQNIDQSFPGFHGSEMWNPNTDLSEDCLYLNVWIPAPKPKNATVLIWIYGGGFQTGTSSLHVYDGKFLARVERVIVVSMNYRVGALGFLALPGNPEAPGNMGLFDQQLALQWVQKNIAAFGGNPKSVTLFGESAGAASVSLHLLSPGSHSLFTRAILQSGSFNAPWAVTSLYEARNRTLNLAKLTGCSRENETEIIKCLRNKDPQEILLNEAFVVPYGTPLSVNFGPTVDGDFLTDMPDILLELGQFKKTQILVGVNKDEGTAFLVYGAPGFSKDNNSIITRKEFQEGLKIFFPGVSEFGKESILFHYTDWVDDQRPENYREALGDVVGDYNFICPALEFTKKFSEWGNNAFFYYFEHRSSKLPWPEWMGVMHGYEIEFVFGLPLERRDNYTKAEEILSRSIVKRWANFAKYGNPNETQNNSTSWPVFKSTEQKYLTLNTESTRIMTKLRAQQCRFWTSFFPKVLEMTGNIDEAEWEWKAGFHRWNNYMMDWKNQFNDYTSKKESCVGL
# run description: biochemical
# measurement setup: pH 8; read-out: BChE IC50
observation type: pIC50
Quick note: pIC50 values are minus log10 of concentrations in mol/L.

Recorded pIC50 for CCc1ccccc1NC(=O)Oc1ccc2c(c1)[C@]1(C)CCN(C)[C@@H]1N2C [Ex. 12, (-)-2'-ethylphenylcarbamoyleseroline] , please? 5.54

Entry Cc1ccc(NC(=O)Oc2ccc3c(c2)[C@]2(C)CCN(C)[C@@H]2N3C)cc1 [Ex. 10, (-)-4'-methylphenylarbamoyleseroline] please 6.60

Entry Cc1ccccc1NC(=O)Oc1ccc2c(c1)[C@]1(C)CCO[C@@H]1N2C please 5.81

Entry Cc1cc(C)c(NC(=O)Oc2ccc3c(c2)[C@]2(C)CCN(C)[C@@H]2N3C)c(C)c1 please 5.48

Entry Cc1ccc(NC(=O)Oc2ccc3c(c2)[C@]2(C)CCN(C)[C@@H]2N3C)c(C)c1 please 5.74

* * *

# tgt: UniProt:P22303
# run description: biochemical
# Assay type: biochemical
# measurement setup: IC50 for AChE
observation type: pIC50
Quick note: pIC50 values are minus log10 of concentrations in mol/L.

Recorded pIC50 for CN1c2ccc(OC(=O)Nc3ccccc3)cc2[C@]2(C)CCO[C@H]12 [Ex. 22, phenylcarbamate of (-)-physovenol] , please? 7.96
